Test Details: Drug concentration in ICR mouse plasma at 1 mg/kg, ig measured after 2 hrs by LC/MS-MS analysis
Format: ADME, organism-based
Setup Conditions: po
Measured Property: concentration at 2 h (ng/mL)
Value expressed in ng/mL; do not type the unit.

**Query** Reported concentration at 2 h for COc1cc2c(cc1OC)S(=O)(=O)C(F)(CC1CCN(Cc3cccc(F)c3)CC1)C2 (stereo unspecified) : what is it?
**Result** 2.59

* * *

Measurement Target: Acetylcholinesterase (Mus musculus)
Sequence (P21836 whole entry): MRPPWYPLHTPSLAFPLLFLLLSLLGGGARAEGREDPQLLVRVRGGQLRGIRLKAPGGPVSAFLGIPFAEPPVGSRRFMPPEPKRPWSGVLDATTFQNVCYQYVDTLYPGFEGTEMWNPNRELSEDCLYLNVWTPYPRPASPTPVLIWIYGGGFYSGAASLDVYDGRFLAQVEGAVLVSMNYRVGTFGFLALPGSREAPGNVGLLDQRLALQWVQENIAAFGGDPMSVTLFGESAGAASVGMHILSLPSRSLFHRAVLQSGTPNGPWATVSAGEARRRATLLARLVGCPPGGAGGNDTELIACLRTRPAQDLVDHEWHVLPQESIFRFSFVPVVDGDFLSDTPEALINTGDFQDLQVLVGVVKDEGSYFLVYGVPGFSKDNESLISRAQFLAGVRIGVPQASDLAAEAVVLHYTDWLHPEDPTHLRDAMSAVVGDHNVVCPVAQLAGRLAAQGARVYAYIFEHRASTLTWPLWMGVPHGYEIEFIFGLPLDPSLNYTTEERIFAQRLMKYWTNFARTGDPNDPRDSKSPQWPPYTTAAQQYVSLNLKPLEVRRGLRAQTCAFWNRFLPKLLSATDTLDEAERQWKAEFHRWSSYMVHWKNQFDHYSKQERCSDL
Measured Property: pKi
Please report pKi as the negative decimal logarithm of the molar concentration, giving only the number.

**Query** Lab note: need pKi with Acetylcholinesterase (Mus musculus) for entry COc1cc2c(cc1OC)S(=O)(=O)C(F)(CC1CCN(Cc3cccc(F)c3)CC1)C2 (stereo unspecified) , please look it up.
**Result** 9.40

Origin of measurements: ChEMBL document CHEMBL5154822
